Assayed Target: Ybr033w (UniProt P38073)
Sequence: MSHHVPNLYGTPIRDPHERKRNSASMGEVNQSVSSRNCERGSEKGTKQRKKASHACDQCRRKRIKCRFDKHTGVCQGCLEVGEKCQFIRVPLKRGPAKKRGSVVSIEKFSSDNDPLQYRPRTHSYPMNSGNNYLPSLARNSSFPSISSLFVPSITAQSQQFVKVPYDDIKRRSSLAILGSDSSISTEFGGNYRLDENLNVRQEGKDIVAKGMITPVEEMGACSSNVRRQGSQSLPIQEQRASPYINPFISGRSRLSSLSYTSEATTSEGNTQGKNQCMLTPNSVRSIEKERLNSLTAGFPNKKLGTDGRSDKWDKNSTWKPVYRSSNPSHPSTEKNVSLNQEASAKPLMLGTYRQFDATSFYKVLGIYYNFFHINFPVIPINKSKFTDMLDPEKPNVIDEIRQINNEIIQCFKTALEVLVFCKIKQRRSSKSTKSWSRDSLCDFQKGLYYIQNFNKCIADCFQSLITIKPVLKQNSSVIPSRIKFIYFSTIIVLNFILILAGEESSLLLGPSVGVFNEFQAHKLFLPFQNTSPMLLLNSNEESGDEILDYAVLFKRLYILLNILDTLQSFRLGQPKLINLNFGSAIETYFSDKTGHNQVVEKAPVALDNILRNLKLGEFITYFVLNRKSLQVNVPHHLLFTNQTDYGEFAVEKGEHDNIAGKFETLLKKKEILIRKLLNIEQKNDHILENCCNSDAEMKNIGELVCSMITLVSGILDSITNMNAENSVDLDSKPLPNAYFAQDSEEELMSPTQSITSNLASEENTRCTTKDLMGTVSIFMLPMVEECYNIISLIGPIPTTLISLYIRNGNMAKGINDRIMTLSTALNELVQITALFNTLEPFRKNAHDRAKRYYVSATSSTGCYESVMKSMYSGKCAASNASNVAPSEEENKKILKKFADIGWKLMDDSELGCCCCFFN
Protocol Details: PBM E-score (8-mer binding enrichment) (E-score (-0.5 to 0.5)); higher = stronger / more preferred TF binding
Conditions Used: protein concentration: 200 nM; construct: GST-full length
Over roughly 33,000 sequences, “E-score (-0.5 to 0.5)” has its median near -0.012; the highest 2% begin near 0.29. What follows is part of a selection rich in the highest values, with near analogues and random picks from the rest.
Class key for PBM E-score values: interval 1: < 0.005; interval 2: ≥ 0.005 and < 0.2; interval 3: ≥ 0.2

As a guide, the following entries are already answered.
[
  {
    "Residue Sequence": "CGATTAAC",
    "Assayed Target": "Ybr033w (UniProt P38073)",
    "Category Label": "interval 2"
  },
  {
    "Residue Sequence": "CAAAGCTC",
    "Assayed Target": "Ybr033w (UniProt P38073)",
    "Category Label": "interval 1"
  },
  {
    "Residue Sequence": "ACAGGTAC",
    "Assayed Target": "Ybr033w (UniProt P38073)",
    "Category Label": "interval 1"
  },
  {
    "Residue Sequence": "AGATTAAT",
    "Assayed Target": "Ybr033w (UniProt P38073)",
    "Category Label": "interval 3"
  },
  {
    "Residue Sequence": "AACAGGTG",
    "Assayed Target": "Ybr033w (UniProt P38073)",
    "Category Label": "interval 1"
  },
  {
    "Residue Sequence": "ACTCCTCC",
    "Assayed Target": "Ybr033w (UniProt P38073)",
    "Category Label": "interval 1"
  }
]

Sort "TAGCGTGA" into one of the categories. interval 2

Entry "TGATTAAA" belongs to which category? interval 3

Band of "ACCTTGGC" ? interval 1

GET /class?item= "AATTAACC" interval 2

Hi there! Could you help me figure out the category for "GGATTAAA" please? interval 3

Lab note: which band did "AAAAAAGC" land in? interval 2

###

Assayed Target: Ybr033w (UniProt P38073)
Sequence: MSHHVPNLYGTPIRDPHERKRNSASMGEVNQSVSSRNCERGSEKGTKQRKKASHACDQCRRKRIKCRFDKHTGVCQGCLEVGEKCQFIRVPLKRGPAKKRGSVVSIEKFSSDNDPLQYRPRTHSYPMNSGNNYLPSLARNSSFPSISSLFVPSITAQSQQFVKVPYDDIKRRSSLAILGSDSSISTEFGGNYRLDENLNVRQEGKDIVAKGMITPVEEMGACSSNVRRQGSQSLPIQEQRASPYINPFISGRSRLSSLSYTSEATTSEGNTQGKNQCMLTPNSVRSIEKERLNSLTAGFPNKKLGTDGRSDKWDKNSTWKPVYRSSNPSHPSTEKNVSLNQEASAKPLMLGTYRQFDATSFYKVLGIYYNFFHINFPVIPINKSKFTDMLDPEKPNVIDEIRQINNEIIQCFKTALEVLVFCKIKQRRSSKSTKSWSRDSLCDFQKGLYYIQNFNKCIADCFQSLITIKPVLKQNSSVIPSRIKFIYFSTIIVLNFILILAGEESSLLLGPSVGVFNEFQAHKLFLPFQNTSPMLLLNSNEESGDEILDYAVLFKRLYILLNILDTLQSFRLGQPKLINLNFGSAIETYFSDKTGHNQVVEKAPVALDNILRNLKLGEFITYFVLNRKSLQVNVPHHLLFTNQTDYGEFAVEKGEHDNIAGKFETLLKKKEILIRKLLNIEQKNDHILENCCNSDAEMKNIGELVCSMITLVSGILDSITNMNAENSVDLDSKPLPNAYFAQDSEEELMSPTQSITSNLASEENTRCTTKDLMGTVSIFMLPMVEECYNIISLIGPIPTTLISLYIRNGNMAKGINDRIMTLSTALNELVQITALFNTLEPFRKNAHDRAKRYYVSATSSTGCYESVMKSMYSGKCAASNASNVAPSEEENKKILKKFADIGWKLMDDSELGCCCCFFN
Protocol Details: PBM E-score (8-mer binding enrichment) (E-score (-0.5 to 0.5)); higher = stronger / more preferred TF binding
Conditions Used: protein concentration: 200 nM; construct: GST-full length
Over roughly 33,000 sequences, “E-score (-0.5 to 0.5)” has its median near -0.012; the highest 2% begin near 0.29. The full list was thinned out, with the highest values kept by preference.
Below is a list of entries, each paired with its recorded PBM E-score value.
Reply with the value as a number alone.

Previously resolved entries follow.
[
  {
    "Residue Sequence": "GACGATTA",
    "PBM E-score": -0.0748
  },
  {
    "Residue Sequence": "GAACTTCC",
    "PBM E-score": 0.16
  }
]

Now take the following sequence into account.
Which measured PBM E-score value corresponds to "CGCACTAA" ? 0.0977

###

Readings of PBM E-score for the listed sequences
Assayed Target: Ybr033w (UniProt P38073)
Sequence: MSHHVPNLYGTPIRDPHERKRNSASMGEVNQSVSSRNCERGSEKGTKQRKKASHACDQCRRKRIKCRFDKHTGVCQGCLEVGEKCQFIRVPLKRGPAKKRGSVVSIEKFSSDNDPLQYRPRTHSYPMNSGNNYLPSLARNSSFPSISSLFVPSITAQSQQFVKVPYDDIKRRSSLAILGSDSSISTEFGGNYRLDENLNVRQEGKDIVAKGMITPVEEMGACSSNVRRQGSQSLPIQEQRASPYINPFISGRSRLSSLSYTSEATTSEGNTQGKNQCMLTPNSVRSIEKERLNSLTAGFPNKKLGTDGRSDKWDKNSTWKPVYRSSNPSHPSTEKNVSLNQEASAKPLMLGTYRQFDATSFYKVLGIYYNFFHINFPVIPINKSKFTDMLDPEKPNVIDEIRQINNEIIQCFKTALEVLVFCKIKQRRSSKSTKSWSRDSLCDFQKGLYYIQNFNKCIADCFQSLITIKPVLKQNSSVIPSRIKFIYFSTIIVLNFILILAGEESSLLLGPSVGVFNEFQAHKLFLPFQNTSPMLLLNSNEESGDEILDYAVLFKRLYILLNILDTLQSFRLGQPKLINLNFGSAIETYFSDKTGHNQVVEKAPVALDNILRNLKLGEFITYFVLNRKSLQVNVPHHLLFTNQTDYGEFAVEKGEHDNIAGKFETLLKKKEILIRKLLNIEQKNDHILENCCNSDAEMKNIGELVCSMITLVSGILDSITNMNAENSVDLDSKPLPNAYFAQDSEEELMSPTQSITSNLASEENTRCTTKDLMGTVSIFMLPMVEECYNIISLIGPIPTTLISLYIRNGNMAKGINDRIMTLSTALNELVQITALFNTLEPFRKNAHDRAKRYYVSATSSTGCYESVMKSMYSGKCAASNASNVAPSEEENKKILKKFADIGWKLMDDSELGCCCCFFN
Protocol Details: PBM E-score (8-mer binding enrichment) (E-score (-0.5 to 0.5)); higher = stronger / more preferred TF binding
Conditions Used: protein concentration: 200 nM; construct: GST-full length
Whole data set: some 33,000 sequences, median “E-score (-0.5 to 0.5)” near -0.012, cut for the highest 2% near 0.29. The sample as a whole holds a higher share of the highest values than the screen did.
Just the number.

A selection of reference data follows.
[
  {
    "Residue Sequence": "ATTAAGCC",
    "Outcome Measure": "PBM E-score",
    "Numeric Value": 0.0562
  },
  {
    "Residue Sequence": "AATAATGT",
    "Outcome Measure": "PBM E-score",
    "Numeric Value": 0.183
  },
  {
    "Residue Sequence": "AATTAAGC",
    "Outcome Measure": "PBM E-score",
    "Numeric Value": 0.169
  },
  {
    "Residue Sequence": "TATAATAA",
    "Outcome Measure": "PBM E-score",
    "Numeric Value": 0.318
  },
  {
    "Residue Sequence": "CAGATATG",
    "Outcome Measure": "PBM E-score",
    "Numeric Value": -0.0501
  }
]

Need PBM E-score, item "TAAAATAA" 0.261

I would be grateful if you could share the reported PBM E-score for "TCAAATAA" . 0.202
